B1: LINE1-full (parent)
chain: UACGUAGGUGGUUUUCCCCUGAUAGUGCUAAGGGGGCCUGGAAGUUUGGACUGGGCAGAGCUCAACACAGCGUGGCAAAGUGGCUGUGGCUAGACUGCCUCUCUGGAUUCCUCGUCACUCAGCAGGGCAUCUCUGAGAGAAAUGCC

Variants of: B1
Experiment: self-cleavage, relative activity (ratio to wild type); higher = more cleavage; in vitro, sequencing; the parent is a self-cleaving ribozyme
Categorized via self-cleavage: low-valued (below 0.1), mid-valued (0.1 to below 0.9), high-valued (0.9 or more)

record sequence	label
UACGUAGGUGGUUUUCCCCUGAUAGCGCUAAGGGGGCCUGGAAGUUUGGACUGGGCAGAACUCAACACAGCGUGGCAAAGUGGCUGUGGCUAGACUGCCUCUCUGGAUUCCUCGUCACUCAGCAGGGCAUCUCUGAGAGAAAUGCC [U26C G60A]	mid-valued
UACGUAGGUGGUUUUCCCCUGAUAGUGCUAAGGGGGCCUGGAAGUUUGGACUGGGCAGAGCUCAACACAGCGUGGCAAAGCGGCUGUGGCUAGACUGCCUCUCUGGAUUCCUCAUCACUCAGCAGGGCAUCUCUGAGAGAAAUGCC [U81C G114A]	high-valued
UACGUAGGUGGUUUUCCCCAGAUAGUGCUAAGGGGGCCUGGAAGUUUGGACUGGGCAGAGCUCAACACAGCGUGGCAAAGUGGCUGUGGCUAGACUGCCUCUCUGGAUUCCUCGUCACUCAGCAGGGCAUCUCUGAGAGAAAUGUC [U20A C145U]	high-valued
UACGUAGGUGGUUUUCCCCUGAUAGUGCUAAGGGGGCCUGGAAGUUGGGACUGGGCAGAGCUCAACACAGCGUGGCAAAGUGGCUGUGGCUAGACUGCCUCUCUGGAUUCCUCGUCACUCAGCAGGGCAACUCUGAGAGAAAUGCC [U47G U130A]	high-valued
CACGUAGGUGGUUUUCCCCUGAUAGUGCUAAGGGGGGCUGGAAGUUUGGACUGGGCAGAGCUCAACACAGCGUGGCAAAGUGGCUGUGGCUAGACUGCCUCUCUGGAUUCCUCGUCACUCAGCAGGGCAUCUCUGAGAGAAAUGCC [U1C C37G]	mid-valued

Asked: The entry to classify is UACGUAGGUGGUUUUACCCUGAUAGUGCUAAGGGGGCCUGGAAGUUUGGACUGGGCAGAGCUCAACACAGCGUGGCAAAGAGGCUGUGGCUAGACUGCCUCUCUGGAUUCCUCGUCACUCAGCAGGGCAUCUCUGAGAGAAAUGCC [C16A U81A] ; which class holds it?
Given back: mid-valued

Asked: The entry to classify is UACGUAGGUGGUUUUCCCCUGAUAGUGCUAAGGGGGCCUGGAAGUUUGGACUGGGCAGAGCUCAACACAGCGUGGCAAAGUGGCUGUGCCUAGACUGCCUCUCUGGAUUCCUCGUCACUCAGCGGGGCAUCUCUGAGAGAAAUGCC [G89C A124G] ; which class holds it?
Given back: low-valued

Asked: The entry to classify is UACGUAGGUGGUUUUCCCCUGAUAGUGCUAAGGGGGCCUGGAAGUUUGGACUGGGCGGAGCUCAACACAGCGUGGCAAAGUGGCUGUGGCUAGACUGCCUCUCUGGAUUCCUCGUCACUCAGCAGGGCAUCUCUGGGAGAAAUGCC [A57G A136G] ; which class holds it?
Given back: high-valued
